Tested on: Plasmodium yoelii
method: Sporozoite infection assay, P. yoelii in Hepa1-6 cells
Format: cell-based
condition: Hepa1-6 Cells, Plasmodium yoelii
In this section, each of the compounds is paired with its reported Percent Infection.
Numbers only; they are read as %.

Take a look at these entries with their results.
# compound, Percent Infection [%]
data = [
    ("Cc1cc(C)c(N)c(C(=O)O)c1 [Ligand 90444, 2-amino-3,5-dimethylbenzoate]", 222),
    ("CCC(C)(C)c1ccc(Oc2cccc(C(=O)O)c2)cc1", 0),
    ("COc1cc(-c2ccc(Nc3ccccc3C(=O)O)c(OC)c2)ccc1Nc1ccccc1C(=O)O", 38.3),
]

Pending compound:
For the compound shown here, O=C(O)Cn1ccc2ccccc21 [Ligand 75866, 2-indol-1-ylacetate] , give the reported Percent Infection.
122

###

targetOfAssay: CD81-LEL (Homo sapiens)
Construct: A recombinant form of the CD81-LEL protein with a GST tag; gift of Dr. Shoshana Levy, Stanford University
method: Surface plasmon resonance binding of ligands to immobilized CD81-LEL
condition: SPR, 3 min association
Note to self: values exactly at 40 response units are condition met. So Binding (change in response units) at or above 40 response units is condition met, below is condition not met.

Examples with answers:
# molecule, discreteLabel
measured = [
    ("O=C(O)c1cc2cc(OCc3ccccc3)ccc2[nH]1", "condition not met"),
    ("O=C(Cn1ccc(=O)[nH]c1=O)Nc1ccc(C(=O)O)c(O)c1", "condition not met"),
]

Check this molecule for Binding (change in response units) at or above 40 response units: Cc1cc(C)c(N)c(C(=O)O)c1 [Ligand 90444, 2-amino-3,5-dimethylbenzoate]
condition not met

Check this molecule for Binding (change in response units) at or above 40 response units: c1cncc(C2CCCC[NH2+]2)c1 (stereo in doubt) [Ligand 87504, 3-[(2S)-piperidin-2-yl]pyridine]
condition met

Check this molecule for Binding (change in response units) at or above 40 response units: O=C(O)/C(=C\c1ccccc1)c1ccccc1 [Ligand 40614, 2,3-diphenylprop-2-enoate]
condition met

Check this molecule for Binding (change in response units) at or above 40 response units: CCC(C)(C)c1ccc(Oc2cccc(C(=O)O)c2)cc1
condition met

Check this molecule for Binding (change in response units) at or above 40 response units: O=C(O)Cn1ccc2ccccc21 [Ligand 75866, 2-indol-1-ylacetate]
condition not met

Check this molecule for Binding (change in response units) at or above 40 response units: CC(C)=CCC1=C(OCC(=O)O)C(=O)c2ccccc2C1=O
condition not met

###

In this section, each of the compounds is paired with its reported Inhibition of JS-81 Binding (%).
targetOfAssay: native CD81 on Raji cells (Homo sapiens)
Construct: endogenous in cells; host or cells: Raji cells (human B cell line)
Sequence (P60033 1-236): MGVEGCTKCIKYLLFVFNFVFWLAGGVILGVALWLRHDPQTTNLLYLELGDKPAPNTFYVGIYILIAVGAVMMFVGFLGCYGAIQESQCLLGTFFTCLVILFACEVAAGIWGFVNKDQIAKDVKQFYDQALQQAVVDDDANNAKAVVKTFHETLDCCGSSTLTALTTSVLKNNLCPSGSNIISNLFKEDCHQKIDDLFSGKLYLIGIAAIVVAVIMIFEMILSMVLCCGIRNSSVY
method: Antibody neutralizing assay: inhibition of JS-81 anti-CD81 antibody binding on Raji cells (FACS)
Type: cell-based
condition: 400 μM ligand, Raji cells
Numbers only; they are read as %.

Take a look at these entries with their results.
# compound, number
measured = [
    ("NS(=O)(=O)c1ccc(N=Nc2c(O)c(C(=O)O)cc3ccccc23)cc1", 26),
    ("O=C(O)c1ccc(N2CCCCC2)cc1O", 17),
    ("O=C(O)/C=C/C(=O)Nc1cccc2cccnc12", 12),
    ("Cc1ccc(-c2cc(C(=O)O)c3ccccc3n2)c(C)c1", 19),
]

For the compound shown here, NC(N)=N/N=C\c1c(Cl)cccc1Cl , give the reported Inhibition of JS-81 Binding (%).
15

For the compound shown here, O=C(O)c1cc(O)ccc1N=Nc1ccccc1 , give the reported Inhibition of JS-81 Binding (%).
19

For the compound shown here, NC(=O)NC(=O)c1nccnc1C(=O)O , give the reported Inhibition of JS-81 Binding (%).
26

For the compound shown here, CC(=NO)C1CC(CC(=O)O)C1(C)C (stereo not shown) , give the reported Inhibition of JS-81 Binding (%).
24

For the compound shown here, CNC1(C(N)=O)CCNCC1 , give the reported Inhibition of JS-81 Binding (%).
52

For the compound shown here, CC(C)(C)c1ccc(NS(=O)(=O)c2ccc(N)cc2)cc1 , give the reported Inhibition of JS-81 Binding (%).
11

###

Tested on: Plasmodium berghei
method: Sporozoite infection assay, P. berghei in Hepa1-6 cells
Type: cell-based
condition: Hepa1-6 Cells, Plasmodium berghei
propertyMeasured: Percent Infection (%)
Numbers only; they are read as %.

Take a look at these entries with their results.
# molecule, targetOfAssay, Percent Infection, %
data = [
    ("CCC(C)(C)c1ccc(Oc2cccc(C(=O)O)c2)cc1", "Plasmodium berghei", 0),
    ("O=C(O)Cn1ccc2ccccc21 [Ligand 75866, 2-indol-1-ylacetate]", "Plasmodium berghei", 135),
]

For the molecule shown here, COc1cc(-c2ccc(Nc3ccccc3C(=O)O)c(OC)c2)ccc1Nc1ccccc1C(=O)O , give the reported Percent Infection.
17.7

For the molecule shown here, Cc1cc(C)c(N)c(C(=O)O)c1 [Ligand 90444, 2-amino-3,5-dimethylbenzoate] , give the reported Percent Infection.
95.6

###

In this section, each of the compounds is paired with its reported inhibition at 400 µM.
targetOfAssay: native CD81 on Raji cells (Homo sapiens)
Construct: endogenous in cells; host or cells: Raji cells (human B cell line)
Sequence (P60033 1-236): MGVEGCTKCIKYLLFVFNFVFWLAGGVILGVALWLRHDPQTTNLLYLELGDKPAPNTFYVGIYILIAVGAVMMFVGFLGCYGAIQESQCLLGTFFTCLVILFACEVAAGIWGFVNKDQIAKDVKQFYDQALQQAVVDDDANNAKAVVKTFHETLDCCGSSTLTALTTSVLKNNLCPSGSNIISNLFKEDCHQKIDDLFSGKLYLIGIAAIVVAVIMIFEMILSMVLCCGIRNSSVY
method: Antibody neutralizing assay: inhibition of JS-81 anti-CD81 antibody binding on Raji cells (FACS)
Assay type: cell-based
condition: 400 μM ligand, Raji cells; read-out: Inhibition of JS-81 Binding (%)
Numbers only; they are read as %.

I'm curious: which inhibition at 400 µM was measured for CCC(C)(C)c1ccc(Oc2cccc(C(=O)O)c2)cc1 tested on native CD81 on Raji cells (Homo sapiens)?
19

I'm curious: which inhibition at 400 µM was measured for O=C(O)c1cc2cc(OCc3ccccc3)ccc2[nH]1 tested on native CD81 on Raji cells (Homo sapiens)?
14

I'm curious: which inhibition at 400 µM was measured for Cc1cc(C)c(N)c(C(=O)O)c1 [Ligand 90444, 2-amino-3,5-dimethylbenzoate] tested on native CD81 on Raji cells (Homo sapiens)?
24

I'm curious: which inhibition at 400 µM was measured for O=C(Cn1ccc(=O)[nH]c1=O)Nc1ccc(C(=O)O)c(O)c1 tested on native CD81 on Raji cells (Homo sapiens)?
16

I'm curious: which inhibition at 400 µM was measured for CC(C)=CCC1=C(OCC(=O)O)C(=O)c2ccccc2C1=O tested on native CD81 on Raji cells (Homo sapiens)?
21

I'm curious: which inhibition at 400 µM was measured for O=C(O)/C(=C\c1ccccc1)c1ccccc1 [Ligand 40614, 2,3-diphenylprop-2-enoate] tested on native CD81 on Raji cells (Homo sapiens)?
26

I'm curious: which inhibition at 400 µM was measured for COc1cc(-c2ccc(Nc3ccccc3C(=O)O)c(OC)c2)ccc1Nc1ccccc1C(=O)O tested on native CD81 on Raji cells (Homo sapiens)?
24

###

In this section, each of the compounds is paired with its reported Dissociation 1 (change in response units).
targetOfAssay: CD81-LEL (Homo sapiens, UniProt P60033)
Construct: A recombinant form of the CD81-LEL protein with a GST tag; gift of Dr. Shoshana Levy, Stanford University
method: Surface plasmon resonance binding of ligands to immobilized CD81-LEL
condition: SPR, dissociation interval
Numbers only; they are read as response units.

# compound, valueUnits, number
measured = [
    ("O=C(O)c1cc2cc(OCc3ccccc3)ccc2[nH]1", "response units", 26.8),
    ("O=C(O)/C(=C\\c1ccccc1)c1ccccc1 [Ligand 40614, 2,3-diphenylprop-2-enoate]", "response units", 50.8),
    ("c1cncc(C2CCCC[NH2+]2)c1 (stereo in doubt) [Ligand 87504, 3-[(2S)-piperidin-2-yl]pyridine]", "response units", 57.9),
    ("O=C(Cn1ccc(=O)[nH]c1=O)Nc1ccc(C(=O)O)c(O)c1", "response units", 16.8),
    ("Cc1cc(C)c(N)c(C(=O)O)c1 [Ligand 90444, 2-amino-3,5-dimethylbenzoate]", "response units", 13.1),
    ("CCC(C)(C)c1ccc(Oc2cccc(C(=O)O)c2)cc1", "response units", 14.7),
]

For the compound shown here, O=C(O)Cn1ccc2ccccc21 [Ligand 75866, 2-indol-1-ylacetate] , give the reported Dissociation 1 (change in response units).
18.9

For the compound shown here, CC(C)=CCC1=C(OCC(=O)O)C(=O)c2ccccc2C1=O , give the reported Dissociation 1 (change in response units).
35.9
